target: EGFR L858R/T790M/C797S (Homo sapiens, UniProt P00533, C797S/L858R/T790M); assay: Biochemical EGFR kinase assay (Lance Ultra TR-FRET), triple mutant L858R/T790M/C797S; conditions: Km ATP; read-out: IC50 L858R/T790M/C797S (nM) Km ATP
Sequence (P00533 25-1210 T790M/C797S/L858R): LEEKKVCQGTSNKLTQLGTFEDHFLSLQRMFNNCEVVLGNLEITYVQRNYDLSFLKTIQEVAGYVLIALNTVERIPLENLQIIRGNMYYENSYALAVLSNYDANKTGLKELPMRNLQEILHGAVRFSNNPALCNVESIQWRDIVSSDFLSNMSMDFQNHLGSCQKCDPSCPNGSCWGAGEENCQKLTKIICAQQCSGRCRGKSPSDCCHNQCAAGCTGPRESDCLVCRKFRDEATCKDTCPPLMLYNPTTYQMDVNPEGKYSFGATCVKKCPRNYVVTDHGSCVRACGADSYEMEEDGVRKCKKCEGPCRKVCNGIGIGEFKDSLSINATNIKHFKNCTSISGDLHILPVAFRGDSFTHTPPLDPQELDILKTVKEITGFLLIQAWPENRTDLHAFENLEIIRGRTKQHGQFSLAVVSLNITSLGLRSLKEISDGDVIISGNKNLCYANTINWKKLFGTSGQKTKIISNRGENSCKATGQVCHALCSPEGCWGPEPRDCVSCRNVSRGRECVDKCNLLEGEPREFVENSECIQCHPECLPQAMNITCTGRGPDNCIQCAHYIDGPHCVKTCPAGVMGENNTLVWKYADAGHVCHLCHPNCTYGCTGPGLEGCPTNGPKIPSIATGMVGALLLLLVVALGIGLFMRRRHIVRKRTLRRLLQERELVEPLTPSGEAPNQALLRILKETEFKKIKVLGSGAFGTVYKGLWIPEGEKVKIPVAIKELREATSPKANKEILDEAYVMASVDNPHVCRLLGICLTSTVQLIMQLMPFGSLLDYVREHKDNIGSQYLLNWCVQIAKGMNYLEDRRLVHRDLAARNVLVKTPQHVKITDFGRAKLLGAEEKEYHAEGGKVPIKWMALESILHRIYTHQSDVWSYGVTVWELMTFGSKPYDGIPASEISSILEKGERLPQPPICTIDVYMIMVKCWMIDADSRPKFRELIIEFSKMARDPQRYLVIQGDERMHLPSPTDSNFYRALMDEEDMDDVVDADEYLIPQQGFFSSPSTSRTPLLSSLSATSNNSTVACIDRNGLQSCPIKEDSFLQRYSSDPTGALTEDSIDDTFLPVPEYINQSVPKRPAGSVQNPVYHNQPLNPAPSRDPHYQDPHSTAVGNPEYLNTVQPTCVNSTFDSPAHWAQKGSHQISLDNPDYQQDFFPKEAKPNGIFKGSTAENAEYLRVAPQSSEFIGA
Assay readout: IC50 (nM)
Provide the reading as a plain figure in nM.

In: Need IC50 of CN(C)CC1(C)CCC(Nc2cc(Nc3ccnc(-c4cnn(S(=O)(=O)C5CC5)c4)n3)ncc2-c2ccn(CC(F)(F)F)n2)CC1 (stereo not shown) [Example 267] , thanks.
Out: 0.5

In: Need IC50 of Cc1nn(C)c(F)c1-c1nccc(Nc2cc(N[C@H]3CC[C@@](C)(O)CC3)c(-c3ccn(C(F)F)n3)cn2)n1 [Example 319] , thanks.
Out: 0.3

In: Need IC50 of O=C1NCCCC1Nc1cc(Nc2ccnc(-c3cnn(S(=O)(=O)C4CC4)c3)n2)ncc1-c1ccn(C(F)F)n1 (stereo not shown) [Example 38] , thanks.
Out: 0.3

In: Need IC50 of COc1ccc(-c2nccc(Nc3cc(N[C@H]4CC[C@@](C)(O)CC4)c(-c4ccn(C(F)F)n4)cn3)n2)cn1 [Example 165] , thanks.
Out: 2.3

In: Need IC50 of CN[C@H]1CC[C@@H](Nc2cc(Nc3ccnc(-c4cnn(S(=O)(=O)C5CC5)c4)n3)ncc2-c2ccn(C)n2)CC1 [Example 88] , thanks.
Out: 0.1

In: Need IC50 of O=S(=O)(C1CC1)n1cc(-c2nccc(Nc3cc(N[C@H]4CC[C@](O)(CO)CC4)c(-c4ccn(C(F)F)n4)cn3)n2)cn1 [Example 188] , thanks.
Out: 0.1

In: Need IC50 of Cc1cc(-c2cnc(Nc3ccnc(-c4cnn(S(=O)(=O)C5CC5)c4)n3)cc2N[C@H]2CC[C@@](C)(O)CC2)nn1C [Example 291] , thanks.
Out: 0.2

* * *

For each entry below, report its IC50 value.
target: UniProt P00533; test: Biochemical EGFR kinase assay (Lance Ultra TR-FRET), wildtype; conditions: IC50 WT (nM) 100 μM ATP, 100 μM ATP
Provide the reading as a plain figure in nM.

In: Need IC50 of CN(C)C(=O)[C@H]1CC[C@@H](Nc2cc(Nc3ccnc(-c4cnn(S(=O)(=O)C5CC5)c4)n3)ncc2-c2cc(C(F)(F)F)n(C)n2)CC1 , thanks.
Out: 294

In: Need IC50 of CN(C)C[C@H]1C[C@@H](CNc2cc(Nc3ccnc(-c4cnn(S(=O)(=O)C5CC5)c4)n3)ncc2-c2ccn(C)n2)C1 , thanks.
Out: 1790

* * *

target: EGFR wildtype (WT) (Homo sapiens); experiment: Biochemical EGFR kinase assay (Lance Ultra TR-FRET), wildtype; settings: Km ATP; read-out: IC50 WT (nM) Km ATP
Sequence (P00533 25-1210): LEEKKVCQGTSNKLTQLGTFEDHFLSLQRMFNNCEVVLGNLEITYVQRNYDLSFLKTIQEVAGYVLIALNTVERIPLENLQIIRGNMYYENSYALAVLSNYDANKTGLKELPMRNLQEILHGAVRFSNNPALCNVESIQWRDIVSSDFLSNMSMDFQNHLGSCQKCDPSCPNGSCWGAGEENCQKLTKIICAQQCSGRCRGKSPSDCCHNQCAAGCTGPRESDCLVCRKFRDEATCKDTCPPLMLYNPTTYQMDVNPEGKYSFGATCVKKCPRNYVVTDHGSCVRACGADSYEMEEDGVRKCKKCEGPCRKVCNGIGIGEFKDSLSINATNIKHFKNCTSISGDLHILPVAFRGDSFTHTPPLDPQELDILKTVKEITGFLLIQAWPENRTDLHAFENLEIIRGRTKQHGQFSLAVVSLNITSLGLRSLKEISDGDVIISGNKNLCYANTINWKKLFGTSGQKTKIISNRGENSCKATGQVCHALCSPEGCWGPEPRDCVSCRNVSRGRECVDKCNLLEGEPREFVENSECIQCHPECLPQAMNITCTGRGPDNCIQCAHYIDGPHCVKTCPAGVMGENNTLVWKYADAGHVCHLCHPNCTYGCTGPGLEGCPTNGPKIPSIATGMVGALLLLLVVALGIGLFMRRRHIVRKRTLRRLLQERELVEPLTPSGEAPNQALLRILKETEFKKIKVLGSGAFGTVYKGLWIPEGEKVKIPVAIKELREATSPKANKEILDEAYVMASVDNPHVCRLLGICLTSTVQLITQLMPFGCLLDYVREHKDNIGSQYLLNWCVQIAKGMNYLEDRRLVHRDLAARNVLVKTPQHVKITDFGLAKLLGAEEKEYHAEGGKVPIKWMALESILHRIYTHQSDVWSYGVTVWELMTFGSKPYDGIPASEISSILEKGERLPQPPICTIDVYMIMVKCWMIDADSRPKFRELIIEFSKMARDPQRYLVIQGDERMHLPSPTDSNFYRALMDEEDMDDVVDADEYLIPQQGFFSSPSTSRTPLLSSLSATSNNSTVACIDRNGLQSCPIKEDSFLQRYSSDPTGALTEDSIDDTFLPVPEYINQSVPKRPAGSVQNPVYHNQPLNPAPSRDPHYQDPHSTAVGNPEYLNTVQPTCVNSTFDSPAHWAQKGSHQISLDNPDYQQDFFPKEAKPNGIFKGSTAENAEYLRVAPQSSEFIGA
Assay readout: IC50 (nM)
Provide the reading as a plain figure in nM.

In: Need IC50 of O=S(=O)(C1CC1)n1cc(-c2nccc(Nc3cc(NC4CCCC(F)C4)c(-c4ccn(C(F)F)n4)cn3)n2)cn1 (stereo not shown) [Example 181] , thanks.
Out: 44.6

In: Need IC50 of CC1(O)CCC(Nc2cc(Nc3ccnc(-c4cnn(C5CCCO5)c4)n3)ncc2-c2ccn(C(F)F)n2)CC1 (stereo not shown) [Example 318] , thanks.
Out: 255

In: Need IC50 of COc1cc(-c2nccc(Nc3cc(N[C@H]4CC[C@@](C)(O)CC4)c(-c4ccn(C(F)F)n4)cn3)n2)ccn1 [Example 169] , thanks.
Out: 325

In: Need IC50 of O=S(=O)(C1CC1)n1cc(-c2nccc(Nc3cc(NC4CC5CC(O)C4C5)c(-c4ccn(C(F)F)n4)cn3)n2)cn1 (stereo not shown) [Example 39] , thanks.
Out: 143

In: Need IC50 of Cn1ccc(-c2cnc(Nc3ccnc(-c4cnn(S(=O)(=O)C5CC5)c4)n3)cc2N[C@H]2CC[C@@H](NCC(F)F)CC2)n1 [Example 45] , thanks.
Out: 2.2

In: Need IC50 of CC(C)(O)[C@H]1CC[C@@H](Nc2cc(Nc3ccnc(-c4cnn(S(=O)(=O)C5CC5)c4)n3)ncc2-c2ccn(C3COC3)n2)CC1 [Example 283] , thanks.
Out: 4.8

In: Need IC50 of Cn1ccc(-c2cnc(Nc3ccnc(-c4cnn(S(=O)(=O)C5CC5)c4)n3)cc2N[C@H]2CC[C@H](CCO)CC2)n1 [Example 134] , thanks.
Out: 4.4

In: Need IC50 of Cn1nc(-c2cnc(Nc3ccnc(-c4cnn(S(=O)(=O)C5CC5)c4)n3)cc2N[C@H]2CC[C@@H](CCO)CC2)cc1C(F)(F)F [Example 262] , thanks.
Out: 8.4

In: Need IC50 of Cn1nc(-c2cnc(Nc3nc(-c4cnn(S(=O)(=O)C5CC5)c4)ncc3F)cc2N[C@H]2CC[C@@](C)(O)CC2)cc1C(F)(F)F [Example 328] , thanks.
Out: 110

In: Need IC50 of CN(C)CCCn1ccc(-c2cnc(Nc3ccnc(-c4cnn(S(=O)(=O)C5CC5)c4)n3)cc2N[C@H]2CC[C@@H](C(C)(C)O)CC2)n1 [Example 278] , thanks.
Out: 1.2

In: Need IC50 of Cn1nc(-c2cnc(Nc3ccnc(-c4cnn(S(=O)(=O)C5CC5)c4)n3)cc2N[C@H]2CC[C@H](CCO)CC2)cc1C(F)(F)F [Example 263] , thanks.
Out: 54.5

In: Need IC50 of CN(C)C[C@]1(O)CC[C@@H](Nc2cc(Nc3ccnc(-c4cnn(S(=O)(=O)C5CC5)c4)n3)ncc2-c2ccn(C)n2)CC1 [Example 230] , thanks.
Out: 9.4

In: Need IC50 of C[C@]1(O)CC[C@@H](Nc2cc(Nc3ccnc(-c4cnn(CCF)c4)n3)ncc2-c2ccn(C(F)F)n2)CC1 [Example 145] , thanks.
Out: 199
